- assay-details: Solubility in a solvent (qualitative)
- Type: physicochemical
- conditions: methanol
value-type: solubility in a solvent

Cc1cc(C)[n+]2[n]1[Pt-2]13[n]4c(C)cc(C)[n+]4[Ag-][n]4c(C)cc(C)[n+]4[Pt-2]([n]4c(C)cc(C)[n+]4[Ag-][n]4c(C)cc(C)[n+]41)([n]1c(C)cc(C)[n+]1[Ag-][n]1c(C)cc(C)[n+]13)[n+]1c(C)cc(C)[n]1[Ag-]2 [[Pt2Ag4(μ-dmpz)8]]; not soluble
CC(C)(C)c1cc[n-]n1.CC(C)(C)c1cc[n-]n1.CC(C)(C)c1cc[nH]n1.CC(C)(C)c1cc[nH]n1.[Pt+2] [[Pt(3-^tBupz)2(3-^tBupzH)2]]; soluble
Cc1cc(C)[n]([Pt-2]([n]2nc(C)cc2C)([n+]2[nH]c(C)cc2C)[n+]2[nH]c(C)cc2C)n1.Cc1cc(C)[n]([Pt-2]([n]2nc(C)cc2C)([n+]2[nH]c(C)cc2C)[n+]2[nH]c(C)cc2C)n1 [[{Pt(dmpz)2(dmpzH)2}2]]; not soluble
CC(C)(C)c1ccn[nH]1.CC(C)(C)c1ccn[nH]1.CC(C)(C)c1ccn[nH]1.CC(C)(C)c1ccn[nH]1.[Cl-].[Cl-].[Pt+2] [[Pt(3-^tBupzH)4]Cl2]; soluble
